experiment: Cyclic voltammetry of mediators, redox potential vs Ag|AgCl; format: physicochemical; settings: redox potential, average of Ered and Eox; reference Ag|AgCl
Measurement name: EO′ (V) [(Ered + Eox)/2]
Please give a number only; it is taken to be in V.

Reported EO′ (V) [(Ered + Eox)/2] for Nc1ccc2c(c1)C(=O)C(=O)c1ccccc1-2 was −0.21

Reported EO′ (V) [(Ered + Eox)/2] for O=C(NCCS(=O)(=O)[O-])c1ccc(-c2ccc3c(c2)C(=O)C(=O)c2ccccc2-3)cc1.[Na+] was −0.18

Reported EO′ (V) [(Ered + Eox)/2] for O=C1C(=O)c2cc(S(=O)(=O)[O-])ccc2-c2ccccc21.[Na+] was −0.15

Reported EO′ (V) [(Ered + Eox)/2] for O=C([O-])c1cc(C(=O)[O-])cc(-c2ccc3c(c2)C(=O)C(=O)c2ccccc2-3)c1.[Na+].[Na+] was −0.19

Reported EO′ (V) [(Ered + Eox)/2] for O=C([O-])c1ccc(-c2ccc3c(c2)C(=O)C(=O)c2ccccc2-3)cc1.[Na+] was −0.18

Reported EO′ (V) [(Ered + Eox)/2] for O=C1C(=O)c2cc([N+](=O)[O-])ccc2-c2ccccc21 was −0.12

Reported EO′ (V) [(Ered + Eox)/2] for O=C1C(=O)c2cc(S(=O)(=O)[O-])ccc2-c2ccc(S(=O)(=O)[O-])cc21.[Na+].[Na+] was −0.12

Reported EO′ (V) [(Ered + Eox)/2] for O=C1C(=O)c2cc(-c3ccc(S(=O)(=O)[O-])cc3)ccc2-c2ccccc21.[Na+] was −0.18
